experimental protocol: Study 2: ascending repeated-dose pharmacokinetics in healthy volunteers
Format: in vivo, human
condition parameters: both sexes, human, plasma, oral, 20 mg, healthy adults, 20 mg once daily; Day 14 (N = 9); read-out: Cmax, Mean (SD)
readout: Cmax (ng/mL)
# output: bare number, implied unit ng/mL

Ask: Entry CC(C)(NC(=O)O[C@@H]1CN2CCC1CC2)c1csc(-c2ccc(F)cc2)n1 [Compound 2] : reported Cmax = ?
Result: 142

---

experimental protocol: Study 2: ascending repeated-dose pharmacokinetics in healthy volunteers
Format: in vivo, human
condition parameters: both sexes, human, plasma, oral, 5 mg, healthy adults, 5 mg once daily; Day 1 (N = 9); read-out: Cmax, Geometric mean (CV)
readout: Cmax (µg/mL)
# output: bare number, implied unit µg/mL

Ask: Entry `CC(C)(NC(=O)O[C@@H]1CN2CCC1CC2)c1csc(-c2ccc(F)cc2)n1` : reported Cmax = ?
Result: 0.0182

---

experimental protocol: Study 2: ascending repeated-dose pharmacokinetics in healthy volunteers
Assay type: in vivo, human
condition parameters: both sexes, human, plasma, oral, 10 mg, healthy adults, 10 mg once daily; Day 1 (N = 9); read-out: AUC0-24, Mean (SD)
readout: AUC(0-t) (ng·h/mL)
# output: bare number, implied unit ng·h/mL

Ask: Entry `CC(C)(NC(=O)O[C@@H]1CN2CCC1CC2)c1csc(-c2ccc(F)cc2)n1` : reported AUC(0-t) = ?
Result: 635

---

experimental protocol: Clinical study in GD-3 patients: Compound 2 concentrations in plasma and CSF
Assay type: in vivo, human
condition parameters: human, plasma, oral, 15 mg/day + imiglucerase, plasma, Day 1 (N = 5), read-out: AUC0-24 (mean ± SD)
readout: AUC(0-t)
# output: number + unit

Ask: Entry `CC(C)(NC(=O)O[C@@H]1CN2CCC1CC2)c1csc(-c2ccc(F)cc2)n1` : reported AUC(0-t) = ?
Result: 715 ng·h/mL

---

experimental protocol: Study 2: ascending repeated-dose pharmacokinetics in healthy volunteers
Type: in vivo, human
condition parameters: both sexes, human, plasma, oral, 10 mg, healthy adults, 10 mg once daily; Day 14 (N = 9); read-out: tmax, median (range)
readout: Tmax
# output: number + unit

Ask: Entry CC(C)(NC(=O)O[C@@H]1CN2CCC1CC2)c1csc(-c2ccc(F)cc2)n1 [Compound 2] : reported Tmax = ?
Result: 2 h

---

experimental protocol: Clinical study in GD-3 patients: Compound 2 concentrations in plasma and CSF
Format: in vivo, human
condition parameters: human, plasma, oral, 15 mg/day + imiglucerase, plasma, Day 1 (N = 6), read-out: AUC0-24 (mean ± SD)
readout: AUC(0-t) (ng·h/mL)
# output: bare number, implied unit ng·h/mL

Ask: Entry CC(C)(NC(=O)O[C@@H]1CN2CCC1CC2)c1csc(-c2ccc(F)cc2)n1 [Compound 2] : reported AUC(0-t) = ?
Result: 729

---

experimental protocol: Study 2: ascending repeated-dose pharmacokinetics in healthy volunteers
Assay type: in vivo, human
condition parameters: both sexes, human, plasma, oral, 5 mg, healthy adults, 5 mg once daily; Day 14 (N = 9); read-out: Cmax, Mean (SD)
readout: Cmax
# output: number + unit

Ask: Entry `CC(C)(NC(=O)O[C@@H]1CN2CCC1CC2)c1csc(-c2ccc(F)cc2)n1` : reported Cmax = ?
Result: 37 ng/mL

---

experimental protocol: Study 2: ascending repeated-dose pharmacokinetics in healthy volunteers
Assay type: in vivo, human
condition parameters: both sexes, human, plasma, oral, 5 mg, healthy adults, 5 mg once daily; Day 14 (N = 9); read-out: Cmax, Geometric mean (CV)
readout: Cmax (ng/mL)
# output: bare number, implied unit ng/mL

Ask: Entry `CC(C)(NC(=O)O[C@@H]1CN2CCC1CC2)c1csc(-c2ccc(F)cc2)n1` : reported Cmax = ?
Result: 36.5

---

experimental protocol: Study 2: ascending repeated-dose pharmacokinetics in healthy volunteers
Format: in vivo, human
condition parameters: both sexes, human, plasma, oral, 10 mg, healthy adults, 10 mg once daily; Day 14 (N = 9); read-out: Cmax, Mean (SD)
readout: Cmax (ng/mL)
# output: bare number, implied unit ng/mL

Ask: Entry `CC(C)(NC(=O)O[C@@H]1CN2CCC1CC2)c1csc(-c2ccc(F)cc2)n1` : reported Cmax = ?
Result: 89.7

---

experimental protocol: Study 2: ascending repeated-dose pharmacokinetics in healthy volunteers
Format: in vivo, human
condition parameters: both sexes, human, plasma, oral, 20 mg, healthy adults, 20 mg once daily; Day 1 (N = 9); read-out: AUC0-24, Mean (SD)
readout: AUC(0-t)
# output: number + unit

Ask: Entry CC(C)(NC(=O)O[C@@H]1CN2CCC1CC2)c1csc(-c2ccc(F)cc2)n1 [Compound 2] : reported AUC(0-t) = ?
Result: 1100 ng·h/mL

---

experimental protocol: Study 2: ascending repeated-dose pharmacokinetics in healthy volunteers
Assay type: in vivo, human
condition parameters: both sexes, human, plasma, oral, 10 mg, healthy adults, 10 mg once daily; Day 14 (N = 9); read-out: AUC0-24, Geometric mean (CV)
readout: AUC(0-t) (ng·h/mL)
# output: bare number, implied unit ng·h/mL

Ask: Entry `CC(C)(NC(=O)O[C@@H]1CN2CCC1CC2)c1csc(-c2ccc(F)cc2)n1` : reported AUC(0-t) = ?
Result: 1490

---

experimental protocol: Study 2: ascending repeated-dose pharmacokinetics in healthy volunteers
Assay type: in vivo, human
condition parameters: both sexes, human, plasma, oral, 5 mg, healthy adults, 5 mg once daily; Day 1 (N = 9); read-out: AUC0-24, Mean (SD)
readout: AUC(0-t) (ng·h/mL)
# output: bare number, implied unit ng·h/mL

Ask: Entry `CC(C)(NC(=O)O[C@@H]1CN2CCC1CC2)c1csc(-c2ccc(F)cc2)n1` : reported AUC(0-t) = ?
Result: 296

---

experimental protocol: Study 2: ascending repeated-dose pharmacokinetics in healthy volunteers
Format: in vivo, human
condition parameters: both sexes, human, plasma, oral, 5 mg, healthy adults, 5 mg once daily; Day 14 (N = 9); read-out: tmax, median (range)
readout: Tmax (h)
# output: bare number, implied unit h

Ask: Entry `CC(C)(NC(=O)O[C@@H]1CN2CCC1CC2)c1csc(-c2ccc(F)cc2)n1` : reported Tmax = ?
Result: 3

---

experimental protocol: Study 2: ascending repeated-dose pharmacokinetics in healthy volunteers
Assay type: in vivo, human
condition parameters: both sexes, human, plasma, oral, 20 mg, healthy adults, 20 mg once daily; Day 1 (N = 9); read-out: tmax, median (range)
readout: Tmax (h)
# output: bare number, implied unit h

Ask: Entry CC(C)(NC(=O)O[C@@H]1CN2CCC1CC2)c1csc(-c2ccc(F)cc2)n1 [Compound 2] : reported Tmax = ?
Result: 3.07

---

experimental protocol: Study 2: ascending repeated-dose pharmacokinetics in healthy volunteers
Format: in vivo, human
condition parameters: both sexes, human, plasma, oral, 20 mg, healthy adults, 20 mg once daily; Day 1 (N = 9); read-out: Cmax, Mean (SD)
readout: Cmax (ng/mL)
# output: bare number, implied unit ng/mL

Ask: Entry CC(C)(NC(=O)O[C@@H]1CN2CCC1CC2)c1csc(-c2ccc(F)cc2)n1 [Compound 2] : reported Cmax = ?
Result: 68

---

experimental protocol: Clinical study in GD-3 patients: Compound 2 concentrations in plasma and CSF
Format: in vivo, human
condition parameters: human, plasma, oral, 15 mg/day + imiglucerase, plasma, Day 1 (N = 5), read-out: Cmax (mean ± SD)
readout: Cmax (ng/mL)
# output: bare number, implied unit ng/mL

Ask: Entry CC(C)(NC(=O)O[C@@H]1CN2CCC1CC2)c1csc(-c2ccc(F)cc2)n1 [Compound 2] : reported Cmax = ?
Result: 48.2

---

experimental protocol: Study 2: ascending repeated-dose pharmacokinetics in healthy volunteers
Format: in vivo, human
condition parameters: both sexes, human, plasma, oral, 5 mg, healthy adults, 5 mg once daily; Day 14 (N = 9); read-out: AUC0-24, Mean (SD)
readout: AUC(0-t) (ng·h/mL)
# output: bare number, implied unit ng·h/mL

Ask: Entry `CC(C)(NC(=O)O[C@@H]1CN2CCC1CC2)c1csc(-c2ccc(F)cc2)n1` : reported AUC(0-t) = ?
Result: 642

---

experimental protocol: Study 2: ascending repeated-dose pharmacokinetics in healthy volunteers
Type: in vivo, human
condition parameters: both sexes, human, plasma, oral, 5 mg, healthy adults, 5 mg once daily; Day 1 (N = 9); read-out: tmax, median (range)
readout: Tmax (h)
# output: bare number, implied unit h

Ask: Entry CC(C)(NC(=O)O[C@@H]1CN2CCC1CC2)c1csc(-c2ccc(F)cc2)n1 [Compound 2] : reported Tmax = ?
Result: 5

---

experimental protocol: Study 2: ascending repeated-dose pharmacokinetics in healthy volunteers
Type: in vivo, human
condition parameters: both sexes, human, plasma, oral, 5 mg, healthy adults, 5 mg once daily; Day 14 (N = 9); read-out: AUC0-24, Geometric mean (CV)
readout: AUC(0-t)
# output: number + unit

Ask: Entry `CC(C)(NC(=O)O[C@@H]1CN2CCC1CC2)c1csc(-c2ccc(F)cc2)n1` : reported AUC(0-t) = ?
Result: 632 ng·h/mL
